Assay: Selectivity index, ratio of IC50 for human recombinant CDK5/p25 to porcine brain GSK3alpha/beta
Answer each item with its documented Ratio IC50.

The examples below pair each entry with its known result.
Field request: Ratio IC50 | item: Cn1ccc(NC(=O)Nc2cccc3c2C2CC4(CCN2C3=O)SCCS4)n1 (stereo not drawn) > 5.2

Entry Cc1cccc(NC(=O)Nc2cccc3c2C2CC4(CCN2C3=O)OCCO4)n1 (stereo not drawn) : reported Ratio IC50 = ? > 10

***
Could you share which Ratio IC50 value was measured for COc1cc(NC(=O)Nc2cccc3c2C2CC4(CCN2C3=O)SCCS4)nc2ccccc12 (stereo not drawn) ? > 2.5
